system: SNB-19 CNS; assay: NCI tumour cell line growth inhibition, 48 h
Parameter: GI50

Provide GI50 value for the following molecule: CCOC(=O)c1ccc2c(c1)[n+](=O)c(C(=O)c1ccc3ccccc3c1)c(C(F)(F)F)n2[O-] 1700 nM

Provide GI50 value for the following molecule: CCOCCc1c(O)nc(SC)[nH]c1=O > 100000 nM

Provide GI50 value for the following molecule: CC1(C)CC(=O)C2=C(C1)NC(SSC1=C(C#N)C(c3ccc(Br)cc3)C3=C(CC(C)(C)CC3=O)N1)=C(C#N)C2c1ccc(Br)cc1 (stereo not drawn) > 150 µg/mL

* * *

Entries annotated with measured TGI
system: UACC-62 melanoma; test: NCI tumour cell line growth inhibition, 48 h

| Smiles Notation | Val |
| --- | --- |
| CC(=O)OCc1cccc(O)c1C(=O)CCC=C(C)C | > 100 µM |
| CN(C)c1ccccc1CC(c1c[nH]c2ccccc12)c1c[nH]c2ccccc12 | 27.6 µM |
| SC[C@@H]1COC[C@H](CS)S1 | > 100 µM |
| CN(C)CCCNC(=O)c1cc(NC(=O)CCNC(=O)c2ccc3c(c2)C(=O)c2ccccc2C3=O)cn1C | > 100 µM |
| O=C(O)CN(CC(=O)O)Cc1cc2c(cc1O)Oc1cc(O)c(CN(CC(=O)O)CC(=O)O)cc1C21OC(=O)c2ccccc21 | > 100 µM |
| Cc1cccc2nc3n(c12)C(=O)c1ccccc1-3 | > 100 µM |
| COC(=O)C1=C(C(=O)OC)SC(=C2c3ccsc3-c3sccc32)S1 | > 100 µM |
| Oc1ccc(-c2c3ccccc3c(-c3ccc(OCCBr)cc3)c3ccccc23)cc1 | 42.1 µM |

Now consider the entry below.
State, for UACC-62 melanoma, measured TGI of the compound listed here: Fc1ccc(-c2ncn(C3CCNCC3)c2-c2ccnc(Oc3ccccc3)n2)cc1 > 25 µM

* * *

tested on: SF-295 CNS; assay: NCI tumour cell line growth inhibition, 48 h
Parameter: TGI

These solved cases illustrate the format of a correct answer.
| Compound | TGI |
| --- | --- |
| CCCCCCCCCCCCOC1C(CNC(=O)C2OC3OC(C)(C)OC3C2NC(=O)CN2CCN(c3ccccn3)CC2)OC2OC(C)(C)OC21 (stereo not drawn) | 3.48 µM |
| CCOC(=O)C1=C(N)Oc2c(sc3c(C)cccc23)C1c1ccc(Cl)cc1 (stereo not drawn) | 4.26 µM |
| O=C(O)CN1CCNCCN(CC(=O)O)CCNCC1 | > 100 µM |
| COc1ccc(C(=O)C(c2ccc(OC)cc2)C2C(=O)Oc3ccccc32)cc1 (stereo not drawn) | > 100 µM |
| C[C@]12CCC3[C@@H](C[C@H]4OC(=O)[C@@]35CCC(=O)C=C45)C1CCC2=O (stereo partly drawn) | > 100 µM |
| COc1cc(C2c3cc4c(cc3OC3(O)COC(=O)C23)OCO4)cc(OC)c1OC (stereo not drawn) | 74.5 µM |
| O=C(CC(=O)N(C(=O)c1ccccc1)c1ccc(Cl)cc1)N/N=C\c1ccccc1O | 80.9 µM |
| Cn1c(N(CCO)CCO)cnc1[N+](=O)[O-] | > 100 µM |

Provide TGI value for the following compound: CC1C(=O)C(C)C(c2cccs2)N(N=O)C1c1cccs1 (stereo not drawn) > 100 µM

Provide TGI value for the following compound: O=C1C(c2ccc([N+](=O)[O-])cc2)=[N+]([O-])c2ccccc21 > 100 µM

Provide TGI value for the following compound: O=C(N/N=C/c1coc2ccc(Cl)cc2c1=O)c1ccncc1 > 100 µM

Provide TGI value for the following compound: COC1OCC(OS(=O)(=O)c2ccc(C)cc2)C(OC(=O)c2ccccc2)C1OC(=O)c1ccccc1 (stereo not drawn) > 100 µM

Provide TGI value for the following compound: Cc1ccc(C2(C)NC(=S)N(NC(N)=S)C2=S)cc1 (stereo not drawn) > 100 µM

Provide TGI value for the following compound: O=C(c1ccccc1)c1ccc(Cl)c([N+](=O)[O-])c1 34.5 µM

Provide TGI value for the following compound: Cn1c(=O)oc2cc(C(=S)N3CCC(Cc4ccccc4)CC3)ccc21 > 100 µM

Provide TGI value for the following compound: CCCCCCc1cc2cc(C(=O)Nc3ccccc3F)c(=N)oc2cc1O 33 µM

Provide TGI value for the following compound: COc1cc2c(c(N)c1OC)C(=O)/C(=C/c1cc(C)c(O)c(C)c1)C2 > 55.6 µM

Provide TGI value for the following compound: O=C(Nc1ccc(Cl)c(Cl)c1)C(=O)C(C1OC(=O)c2ccccc21)[N+](=O)[O-] (stereo not drawn) > 100 µM

* * *

system: OVCAR-8 ovarian; assay: NCI tumour cell line growth inhibition, 48 h
Parameter: TGI

| Compound | Parameter | Val |
| --- | --- | --- |
| O/N=C(\C=N\O)c1ccc2c(c1)Sc1ccccc1O2 | TGI | 74.8 µM |

Now consider the entry below.
Provide TGI value for the following compound: O=C1CSC(=S)N1c1ccc(F)cc1F > 100 µM

* * *

system: SF-539 CNS; test: NCI tumour cell line growth inhibition, 48 h
Entries annotated with measured GI50

| Compound | Val |
| --- | --- |
| CN(C)c1ccc(/C=C(\C#N)c2cc3ccccc3n2C)cc1 | 0.208 µM |
| O=C(Nc1ncc(Cc2ccccc2)s1)c1ccc2c(c1)OCCO2 | 0.0283 µM |
| NC(=O)c1nnn(Cc2cc(Cl)c(C(=O)c3ccc(Cl)cc3)c(Cl)c2)c1N | > 9.09 µM |
| CC1(C)Cc2cccc(OCC(O)CN3CCN(c4ccc(F)cc4)CC3)c2O1 (stereo unspecified) | 13 µM |
| O=C(CCCCC(=O)N/N=C\c1ccccc1Cl)N/N=C\c1ccccc1Cl | 16.9 µM |
| CCc1ccc(CCC(=O)Nc2ncc(Cc3cc(Cl)ccc3Cl)s2)o1 | 1.26 µM |
| Nc1ccccc1/C=N\Nc1ccccc1 | 1.27 µM |
| O=C(CCc1nnc(-c2c(Cl)cccc2Cl)o1)c1nc2ccccc2[nH]1 | 10.5 µM |

State, for SF-539 CNS, measured GI50 of the compound listed here: COC1OCC(OS(=O)(=O)c2ccc(C)cc2)C(OC(=O)c2ccccc2)C1OC(=O)c1ccccc1 (stereo unspecified) 5 µM

State, for SF-539 CNS, measured GI50 of the compound listed here: Fc1ccc(CNc2c3ccccc3nc3ccccc23)cc1 2.22 µM

State, for SF-539 CNS, measured GI50 of the compound listed here: CN(C)CCCNC(=O)c1cc(NC(=O)CCNC(=O)c2ccc3c(c2)C(=O)c2ccccc2C3=O)cn1C > 100 µM

* * *

Entries annotated with measured TGI
tested on: CAKI-1 renal; assay: NCI tumour cell line growth inhibition, 48 h

These solved cases illustrate the format of a correct answer.
| Compound | Val |
| --- | --- |
| COc1cc(CNc2nc3ccccc3nc2-c2cccs2)cc(OC)c1OC | 28.4 µM |
| O=C(O)CN(CC(=O)O)Cc1cc2c(cc1O)Oc1cc(O)c(CN(CC(=O)O)CC(=O)O)cc1C21OC(=O)c2ccccc21 | > 100 µM |
| COC(=O)c1cc(C)n2c1CS[C@@H]2c1ccccc1 | > 100 µM |
| O=C1NC2OCC(O)C(O1)C2O (centres undefined) | > 100 µM |
| COc1ccc(-c2nc(N)c(C#N)c3c2CCSc2ccc(C)cc2-3)cc1OC | > 70.5 µM |

Provide TGI value for the following compound: COC(=O)CSc1ccccc1 > 100 µM

* * *

test system: OVCAR-4 ovarian; test: NCI tumour cell line growth inhibition, 48 h
Entries annotated with measured TGI

| Molecule | Measurement Target | TGI |
| --- | --- | --- |
| COCC1C(=O)c2cc3c(cc2C12C=CC1(C=C2)OCCO1)OCO3 (configuration not stated) | OVCAR-4 ovarian | 27.4 µM |
| COC(=O)c1cc(C)n2c1CS[C@@H]2c1ccccc1 | OVCAR-4 ovarian | > 100 µM |
| C=CCCC(O)c1ccc(C(O)CCCCCCCCCCCC)o1 (configuration not stated) | OVCAR-4 ovarian | 92.9 µM |
| C[As](C)Sc1ccnc(S[As](C)C)n1 | OVCAR-4 ovarian | 36.3 µM |
| Fc1ccc(-c2ncn(C3CCNCC3)c2-c2ccnc(Oc3ccccc3)n2)cc1 | OVCAR-4 ovarian | > 25 µM |

Provide TGI value for the following molecule: O=c1cc2n(c(=O)[nH]1)C1OC(C(O)C1O)[C@H]2CCO (some centres not stated) > 100 µM

Provide TGI value for the following molecule: CCOC(=O)C1=C(OS(=O)(=O)C(F)(F)F)CCCC1 > 100 µM

Provide TGI value for the following molecule: CC(C)(C)c1ccc(-c2nc3ccccc3c(=O)o2)cc1 > 100 µM

Provide TGI value for the following molecule: COc1ccc(NC(=O)CC/C(CC(=O)c2ccccc2Cl)=N\Nc2nnc(C)n2N)cc1 > 100 µM

Provide TGI value for the following molecule: O=C(c1ccccc1)c1ccc(Cl)c([N+](=O)[O-])c1 3.13 µM

Provide TGI value for the following molecule: CC(Oc1ccccc1)C(=O)NN (configuration not stated) > 100 µM

Provide TGI value for the following molecule: O=S(=O)(O)c1ccc(Cl)cc1.[Cd] > 100 µM

Provide TGI value for the following molecule: O=C(O)CN1CCNCCN(CC(=O)O)CCNCC1 > 100 µM

Provide TGI value for the following molecule: COc1c(OC(C)=O)c(OC(C)=O)cc2c1-c1ccc(OC)c(=O)cc1C(NC(C)=O)CC2 (configuration not stated) > 100 µM

Provide TGI value for the following molecule: CN(C)CCCc1cccnc1 > 100 µM

Provide TGI value for the following molecule: Cc1ccccc1N=Cc1ccc(N(CCC#N)S(=O)(=O)c2ccccc2)cc1 > 100 µM

Provide TGI value for the following molecule: O=C(Nc1ccc(Cl)c(Cl)c1)C(=O)Nn1c(=S)[nH]c2ccccc2c1=O > 100 µM
